# SYSTEM_UNDER_TEST: T1, OmpR (Escherichia coli, UniProt P0AA16)
# T1 chain: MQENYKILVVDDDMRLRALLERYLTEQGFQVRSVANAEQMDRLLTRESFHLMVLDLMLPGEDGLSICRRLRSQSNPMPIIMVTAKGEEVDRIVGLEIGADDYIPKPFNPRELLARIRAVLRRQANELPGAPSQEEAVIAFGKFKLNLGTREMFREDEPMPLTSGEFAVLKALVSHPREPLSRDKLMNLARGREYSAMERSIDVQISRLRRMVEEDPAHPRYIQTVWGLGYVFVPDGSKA
# TEST_METHOD_NOTES: fluorescence anisotropy
ATTRIBUTE_MEASURED: Kd
Note: state the figure and append the unit.

What the record says about EnvZc cytoplasmic domain (protein) FNHMAAGVKQLADDRTLLMAGVSHDLRTPLTRIRLATEMMSEQDGYLAESINKDIEECNAIIEQFIDYLRTGQ : Kd is 425 nM

In the following, a different binder is considered.
The binder identified as EnvZc cytoplasmic domain (protein, ompC DNA (C1-C2-C3)) FNHMAAGVKQLADDRTLLMAGVSHDLRTPLTRIRLATEMMSEQDGYLAESINKDIEECNAIIEQFIDYLRTGQ registered its Kd at 385 nM
